test: in vitro; details: human, hela cells, % viability
Exercise: state measured viability at 28.5 h, 10 µM for each of the compounds provided.
One number for each entry, in %.

>>> reading("COc1cc(Br)c(OC)c(C(=O)N(C)Cc2cnn(C)c2)c1")
102
>>> reading("O=C1CCC(=O)N1CCOc1nccnc1OC1CCN(CC2CCCCC2)CC1")
105
>>> reading("O=C(O)CCC(=O)Nc1ccc(C(=O)O)cc1")
96.6
>>> reading("CC(=O)N[C@H]1CO[C@H]2[C@@H]1OC[C@@H]2n1nnnc1Oc1ccc(-n2ccnc2)cc1")
104

Now look at this entry.
(Q) Quick check: viability at 28.5 h, 10 µM of O=C(NCCn1nc(-c2cccs2)oc1=O)C1CCCC1 ?
(A) 105

All values here come from paper PMC12040169.
